System: Rattus norvegicus
assay-name: Antiinflammatory activity in albino rat assessed as inhibition of carrageenan-induced paw edema at 0.029 mmol/kg, po after 1 hr relative to control
Format: functional
Decide by inhibition in vivo at 29 µmol/kg: equal to or exceeding 10% means Criterion met, less means Criterion not met.

*Q* Decide: inhibition in vivo at 29 µmol/kg of O=C1NC(c2ccc([N+](=O)[O-])cc2)NC2=C1C1CCCN1C(=O)N2c1ccccc1 (stereo not given) >= 10%?
*A* Criterion not met

*Q* // inclusive: inhibition in vivo at 29 µmol/kg at least 10%? input: "N#Cc1ccc(/N=c2\c(C#N)c3n(c(=O)n2-c2ccccc2)CCC3)cc1"
*A* Criterion met

*Q* Is it the case that O=C1NC(c2ccccc2[N+](=O)[O-])NC2=C1C1CCCN1C(=O)N2c1ccccc1 (stereo not given) has inhibition in vivo at 29 µmol/kg reaching or exceeding 10%?
*A* Criterion met

*Q* Assess whether reported inhibition in vivo at 29 µmol/kg for "C=CC/N=c1/c(C#N)c2n(c(=O)n1-c1ccccc1)CCC2" sits at 10% or higher.
*A* Criterion not met

*Q* Given CCN1C(=S)N2CCCC2c2c1ncn(CC)c2=N (stereo not given) , state whether its inhibition in vivo at 29 µmol/kg is at least 10%.
*A* Criterion met
